The values you see were collected from the NIST ThermoML archive (doi:10.1021/je0500734).

# experimental context: 305.15 K; 101.33 kPa; Liquid; acoustic time of flight gauge
measured metric: speed of sound (m/s)

>  <substance smiles>
CCCCCO

>  <recorded number>
1249.4

$$$$
>  <substance smiles>
[2H]OCCCCC

>  <recorded number>
1241.1

$$$$
>  <substance smiles>
C[N+](=O)[O-]

>  <recorded number>
1289.2

$$$$
>  <substance smiles>
[2H]C([2H])([2H])[N+](=O)[O-]

>  <recorded number>
1243.5

$$$$

====

# experimental context: 300.15 K; 101.33 kPa; Liquid; acoustic time of flight gauge

>  <compound>
[2H]OCCCCC [pentan-1-ol-d]

>  <speed of sound [m/s]>
1258.3

$$$$
>  <compound>
CCCCCO [pentan-1-ol]

>  <speed of sound [m/s]>
1266.7

$$$$
>  <compound>
C[N+](=O)[O-] [nitromethane]

>  <speed of sound [m/s]>
1309.4

$$$$
>  <compound>
[2H]C([2H])([2H])[N+](=O)[O-] [deuteronitromethane]

>  <speed of sound [m/s]>
1263.3

$$$$

====

# experimental context: 308.15 K; 101.33 kPa; Liquid; acoustic time of flight gauge
Entries and their measured speed of sound follow.
measured metric: speed of sound (m/s)

>  <substance smiles>
CCCCCO

>  <measured metric>
speed of sound

>  <measurement units>
m/s

>  <recorded number>
1239.3

$$$$
>  <substance smiles>
[2H]OCCCCC

>  <measured metric>
speed of sound

>  <measurement units>
m/s

>  <recorded number>
1230.8

$$$$
>  <substance smiles>
[2H]C([2H])([2H])[N+](=O)[O-]

>  <measured metric>
speed of sound

>  <measurement units>
m/s

>  <recorded number>
1231.6

$$$$
